FYI, the data here is from ChEMBL document CHEMBL1133875.

Sequence of the target: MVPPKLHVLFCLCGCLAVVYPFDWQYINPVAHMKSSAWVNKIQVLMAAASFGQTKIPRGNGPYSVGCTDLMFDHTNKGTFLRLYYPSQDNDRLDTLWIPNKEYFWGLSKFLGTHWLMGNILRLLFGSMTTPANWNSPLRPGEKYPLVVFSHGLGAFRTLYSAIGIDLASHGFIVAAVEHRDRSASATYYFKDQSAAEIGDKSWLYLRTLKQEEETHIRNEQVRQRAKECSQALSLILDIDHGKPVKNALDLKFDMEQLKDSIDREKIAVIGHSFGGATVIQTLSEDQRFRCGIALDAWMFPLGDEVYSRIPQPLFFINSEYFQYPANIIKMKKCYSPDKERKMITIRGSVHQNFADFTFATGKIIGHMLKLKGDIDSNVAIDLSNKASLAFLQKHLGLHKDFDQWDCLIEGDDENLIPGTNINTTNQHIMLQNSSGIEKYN
Metric: IC50 (nM)
State just the number; it will be interpreted in nM.

Request: Which IC50 value belongs to O=C(O)Cn1cc(Cc2cn(CCCC(=O)N3CCN(c4ccc(Cl)c(Cl)c4)CC3)c(SCc3ccc(F)cc3)nc2=O)cnc1=O ?
Response: 9

Request: Again, but for Cn1cc(Cc2cn(CCCC(=O)N3CCN(c4ccc(Cl)cc4)CC3)c(SCc3ccc(F)cc3)nc2=O)cn1
Response: 3

Request: Follow-up entry: Cn1cc(Cc2cn(CC(=O)N3CCN(c4ccc(Cl)cc4)CC3)c(SCc3ccc(F)cc3)nc2=O)cn1
Response: 44

Request: And the next one, COc1ncc(Cc2cn(CC(=O)N3CCN(c4ccc(Cl)cc4)CC3)c(SCc3ccc(F)cc3)nc2=O)cn1 ?
Response: 20

Request: Input CN(C)c1ncc(Cc2cn(CC(=O)N3CCN(c4ccc(Cl)cc4)CC3)c(SCc3ccc(F)cc3)nc2=O)cn1
Response: 29
